Molecular target: HiBit-BRM fusion protein (Homo sapiens)
Construct: expressed in transfected cells
Sequence (P51531 whole entry, the tested form may be a part): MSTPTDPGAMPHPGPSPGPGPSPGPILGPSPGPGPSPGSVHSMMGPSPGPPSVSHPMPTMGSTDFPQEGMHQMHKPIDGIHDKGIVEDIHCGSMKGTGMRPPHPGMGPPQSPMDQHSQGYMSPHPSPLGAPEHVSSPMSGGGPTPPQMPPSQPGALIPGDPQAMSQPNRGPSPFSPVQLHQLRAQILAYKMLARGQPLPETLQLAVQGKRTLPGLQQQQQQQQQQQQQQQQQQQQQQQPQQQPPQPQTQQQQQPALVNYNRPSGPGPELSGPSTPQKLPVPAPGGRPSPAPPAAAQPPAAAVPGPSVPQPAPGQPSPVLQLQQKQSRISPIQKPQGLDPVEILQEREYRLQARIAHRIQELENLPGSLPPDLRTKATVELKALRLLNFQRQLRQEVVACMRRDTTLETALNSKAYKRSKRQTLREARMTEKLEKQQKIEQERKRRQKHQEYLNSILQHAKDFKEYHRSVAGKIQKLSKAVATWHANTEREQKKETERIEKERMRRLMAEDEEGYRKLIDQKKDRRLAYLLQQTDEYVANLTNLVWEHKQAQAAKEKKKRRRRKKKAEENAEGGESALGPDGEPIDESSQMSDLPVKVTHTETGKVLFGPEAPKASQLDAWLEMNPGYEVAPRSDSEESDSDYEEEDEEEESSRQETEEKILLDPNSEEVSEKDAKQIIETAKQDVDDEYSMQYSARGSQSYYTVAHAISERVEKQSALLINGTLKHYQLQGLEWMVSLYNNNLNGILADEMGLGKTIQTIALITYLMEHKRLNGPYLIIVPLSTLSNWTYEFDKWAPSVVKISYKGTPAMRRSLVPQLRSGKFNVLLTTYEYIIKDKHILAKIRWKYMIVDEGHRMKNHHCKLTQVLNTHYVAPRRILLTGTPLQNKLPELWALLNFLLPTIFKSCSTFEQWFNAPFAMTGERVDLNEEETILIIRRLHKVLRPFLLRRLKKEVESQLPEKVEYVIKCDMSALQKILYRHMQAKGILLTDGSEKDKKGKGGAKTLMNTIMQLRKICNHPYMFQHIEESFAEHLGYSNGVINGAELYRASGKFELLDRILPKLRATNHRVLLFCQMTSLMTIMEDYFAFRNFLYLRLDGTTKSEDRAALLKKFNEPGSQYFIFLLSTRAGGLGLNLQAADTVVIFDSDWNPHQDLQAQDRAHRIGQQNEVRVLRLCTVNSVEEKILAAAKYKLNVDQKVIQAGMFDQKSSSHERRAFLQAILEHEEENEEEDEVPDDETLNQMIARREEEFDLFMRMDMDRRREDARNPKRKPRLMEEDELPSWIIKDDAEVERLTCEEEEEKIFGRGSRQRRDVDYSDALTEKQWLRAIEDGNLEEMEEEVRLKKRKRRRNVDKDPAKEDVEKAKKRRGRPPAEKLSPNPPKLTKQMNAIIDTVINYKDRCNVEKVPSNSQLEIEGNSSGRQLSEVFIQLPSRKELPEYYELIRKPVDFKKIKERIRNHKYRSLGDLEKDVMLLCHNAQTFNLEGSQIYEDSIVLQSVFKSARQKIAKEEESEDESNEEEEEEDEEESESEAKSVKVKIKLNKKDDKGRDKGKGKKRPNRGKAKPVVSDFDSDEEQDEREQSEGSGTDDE
Experiment: HiBiT-BRM cell-based degradation assay (Nano-Glo HiBiT Lytic Detection, 24 h)
Settings: HeLa cells expressing HiBiT-BRM, read-out: BRM HiBit Degradation IC50
Procedure: Procedure: A stable HeLa cell line expressing HiBiT-BRM was generated. On day 0, 5000 cells were seeded in 40 μL of media into each well of 384-well cell culture plates. […] The plates were shaken for 10 minutes at room temperature and the bioluminescence read using an EnVision plate reader (PerkinElmer). The degradation % was calculated using the following formula: % degradation=100%−100%×(LumSample−LumLC)/(LumHC−LumLC). […]
reportedEndpoint: DC50

compound="Cc1ncsc1-c1ccc(CNC(=O)[C@@H]2C[C@@H](O)CN2C(=O)[C@@H](NC(=O)COCCOCC(=O)NCc2cccc(-c3cccc(-c4csc(NC(=O)CNC(=O)c5ccn(S(C)(=O)=O)c5)n4)c3)c2)C(C)(C)C)cc1 [Compound 44]" reportedendpoint=DC50 result="1000 to 10000 nM"
compound="CS(=O)(=O)n1ccc(C(=O)N[C@@H](COCc2ccc(C(=O)N3CC4(CCN(CCCNc5ccc6c(c5)C(=O)N(C5CCC(=O)NC5=O)C6=O)CC4)C3)cc2)C(=O)Nc2nc(-c3ccccc3)cs2)c1 (some centres unmarked) [Compound 234]" reportedendpoint=DC50 result="100 to 1000 nM"

----------
Biological target: HiBit-BRG1 fusion protein (Homo sapiens, UniProt P51532)
Construct: expressed in transfected cells
Sequence (P51532 whole entry, the tested form may be a part): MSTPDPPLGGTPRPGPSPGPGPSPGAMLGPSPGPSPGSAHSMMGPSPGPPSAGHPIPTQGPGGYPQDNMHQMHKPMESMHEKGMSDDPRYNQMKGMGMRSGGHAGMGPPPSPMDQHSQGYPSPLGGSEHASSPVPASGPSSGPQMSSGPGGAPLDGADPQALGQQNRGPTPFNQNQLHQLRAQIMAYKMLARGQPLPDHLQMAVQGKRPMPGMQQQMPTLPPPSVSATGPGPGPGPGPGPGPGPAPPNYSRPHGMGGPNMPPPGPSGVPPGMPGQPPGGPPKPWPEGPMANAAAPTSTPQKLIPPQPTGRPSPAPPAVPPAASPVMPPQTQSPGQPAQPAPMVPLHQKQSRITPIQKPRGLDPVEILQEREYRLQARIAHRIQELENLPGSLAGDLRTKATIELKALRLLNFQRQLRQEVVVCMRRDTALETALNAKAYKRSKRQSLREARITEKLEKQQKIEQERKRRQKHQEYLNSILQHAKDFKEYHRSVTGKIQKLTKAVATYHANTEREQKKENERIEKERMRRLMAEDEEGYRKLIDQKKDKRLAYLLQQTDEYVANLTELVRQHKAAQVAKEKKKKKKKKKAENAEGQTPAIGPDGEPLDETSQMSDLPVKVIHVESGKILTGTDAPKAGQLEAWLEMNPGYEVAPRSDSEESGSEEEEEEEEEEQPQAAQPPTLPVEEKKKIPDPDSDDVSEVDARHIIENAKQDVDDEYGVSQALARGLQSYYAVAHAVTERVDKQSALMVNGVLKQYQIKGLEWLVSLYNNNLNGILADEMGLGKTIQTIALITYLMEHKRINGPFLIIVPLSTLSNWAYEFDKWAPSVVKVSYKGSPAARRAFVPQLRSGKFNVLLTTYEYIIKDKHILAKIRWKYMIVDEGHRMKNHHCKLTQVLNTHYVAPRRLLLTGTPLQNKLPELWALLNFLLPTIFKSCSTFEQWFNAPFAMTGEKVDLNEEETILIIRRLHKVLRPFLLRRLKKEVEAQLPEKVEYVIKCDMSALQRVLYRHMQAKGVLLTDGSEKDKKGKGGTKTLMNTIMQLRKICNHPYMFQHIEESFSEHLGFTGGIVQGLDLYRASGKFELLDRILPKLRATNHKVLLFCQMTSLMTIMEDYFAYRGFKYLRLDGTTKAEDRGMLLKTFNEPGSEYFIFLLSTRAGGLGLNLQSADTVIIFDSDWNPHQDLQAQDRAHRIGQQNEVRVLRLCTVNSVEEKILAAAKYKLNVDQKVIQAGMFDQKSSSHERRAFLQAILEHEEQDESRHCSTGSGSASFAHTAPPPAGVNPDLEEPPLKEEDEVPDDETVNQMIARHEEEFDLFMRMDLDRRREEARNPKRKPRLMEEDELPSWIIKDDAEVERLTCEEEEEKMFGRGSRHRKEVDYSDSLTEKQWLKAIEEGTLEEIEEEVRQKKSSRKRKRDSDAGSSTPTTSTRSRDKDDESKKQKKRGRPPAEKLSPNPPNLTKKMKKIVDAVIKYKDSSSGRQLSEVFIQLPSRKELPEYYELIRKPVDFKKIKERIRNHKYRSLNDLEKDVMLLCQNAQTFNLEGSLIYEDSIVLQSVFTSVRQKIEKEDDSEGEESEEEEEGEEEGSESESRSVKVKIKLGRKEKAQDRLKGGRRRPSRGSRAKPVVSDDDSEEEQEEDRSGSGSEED
Test: HiBiT-BRG1 cell-based degradation assay (Nano-Glo HiBiT Lytic Detection, 24 h)
Conditions: HeLa, HeLa cells expressing HiBit-BRG1 and LgBit, top dose 30 μM, read-out: BRG1 HiBit Degradation Maximum measured
This listing pairs molecules with measured Dmax.
reportedEndpoint: Dmax

molecule=Cc1ncsc1-c1ccc(CNC(=O)[C@H]2C[C@@H](O)CN2C(=O)[C@@H](NC(=O)COCCOCCOCCNC(=O)CCCOCC[C@H](NC(=O)c2ccn(S(C)(=O)=O)c2)C(=O)Nc2nc(-c3ccccc3)cs2)C(C)(C)C)cc1 result="< 50%"
molecule="CS(=O)(=O)n1ccc(C(=O)N[C@@H](CCOCCCC(=O)NCCOCCOCCNC(=O)COc2ccc3c(c2)C(=O)N(C2CCC(=O)NC2=O)C3=O)C(=O)Nc2nc(-c3ccccc3)cs2)c1 (some centres unmarked)" result="< 50%"
molecule="CS(=O)(=O)n1ccc(C(=O)N[C@@H](COCc2ccc(C(=O)NCCCCCNc3ccc4c(c3)C(=O)N(C3CCC(=O)NC3=O)C4=O)cc2)C(=O)Nc2nc(-c3ccccc3)cs2)c1 (some centres unmarked)" result="> 75%"
molecule="CN(CC(=O)N1CC(COc2cccc3c2C(=O)N(C2CCC(=O)NC2=O)C3=O)C1)c1cc(-c2cccc(-c3csc(NC(=O)CNC(=O)c4ccn(S(C)(=O)=O)c4)n3)c2)ccn1 (centres unmarked)" result="< 50%"
molecule="CS(=O)(=O)n1ccc(C(=O)N[C@@H](COCc2ccc(CNC(=O)CCCCCCOc3cccc4c3C(=O)N(C3CCC(=O)NC3=O)C4=O)cc2)C(=O)Nc2nc(-c3ccccc3)cs2)c1 (some centres unmarked)" result="< 50%"

----------
This listing pairs compounds with measured DC50.
Target: HiBit-BRG1 fusion protein (Homo sapiens)
Construct: expressed in transfected cells
Assay: HiBiT-BRG1 cell-based degradation assay (Nano-Glo HiBiT Lytic Detection, 24 h)
Settings: HeLa cells expressing HiBit-BRG1 and LgBit, read-out: BRG1 HiBit Degradation IC50
reportedEndpoint: DC50

compound="CS(=O)(=O)n1ccc(C(=O)N[C@@H](COCc2ccc(C(=O)NCCCC#Cc3ccc4c(c3)C(=O)N(C3CCC(=O)NC3=O)C4=O)cc2)C(=O)Nc2nc(-c3ccccc3)cs2)c1 (stereo partly drawn) [Compound 204]" reportedendpoint=DC50 result="100 to 1000 nM"
compound="CS(=O)(=O)n1ccc(C(=O)N[C@@H](CCOCCCC(=O)N2CCN(CCCC#Cc3ccc4c(c3)C(=O)N(C3CCC(=O)NC3=O)C4=O)CC2)C(=O)Nc2nc(-c3ccccc3)cs2)c1 (stereo partly drawn) [Compound 263, formic acid]" reportedendpoint=DC50 result="> 10000 nM"
compound="Cc1ncsc1-c1ccc(CNC(=O)[C@@H]2C[C@@H](O)CN2C(=O)[C@@H](NC(=O)CCCCCNC(=O)CN(C)c2cc(-c3cccc(-c4csc(NC(=O)CNC(=O)c5ccn(S(C)(=O)=O)c5)n4)c3)ccn2)C(C)(C)C)cc1 [Compound 87]" reportedendpoint=DC50 result="> 10000 nM"
compound="CS(=O)(=O)n1ccc(C(=O)NCC(=O)Nc2nc(-c3cccc(-c4cccc(CNC(=O)CCCCCCCCNc5cccc6c5C(=O)N(C5CCC(=O)NC5=O)C6=O)c4)c3)cs2)c1 (stereo not drawn) [Compound 20]" reportedendpoint=DC50 result="> 10000 nM"
compound="CS(=O)(=O)n1ccc(C(=O)N[C@@H](COCc2ccc(CNC(=O)CCOCCOCCNc3cccc4c3C(=O)N(C3CCC(=O)NC3=O)C4=O)cc2)C(=O)Nc2nc(-c3ccccc3)cs2)c1 (stereo partly drawn) [Compound 181]" reportedendpoint=DC50 result="100 to 1000 nM"
compound="CS(=O)(=O)n1ccc(C(=O)NCC(=O)Nc2nc(-c3cccc(-c4ccnc(C5(C(=O)NCCS(=O)(=O)CCNc6cccc7c6C(=O)N(C6CCC(=O)NC6=O)C7=O)CC5)c4)c3)cs2)c1 (stereo not drawn) [Compound 102]" reportedendpoint=DC50 result="100 to 1000 nM"
compound="Cc1ncsc1-c1ccc(CNC(=O)[C@@H]2CC(O)CN2C(=O)[C@@H](NC(=O)COCCOCCOCCNC(=O)CN(C)c2cc(-c3cccc(-c4csc(NC(=O)CNC(=O)c5ccn(S(C)(=O)=O)c5)n4)c3)ccn2)C(C)(C)C)cc1 (stereo partly drawn) [Compound 89]" reportedendpoint=DC50 result="> 10000 nM"
compound="CS(=O)(=O)n1ccc(C(=O)N[C@@H](CCOCCCC(=O)NCCCCS(=O)(=O)CCCNc2cccc3c2C(=O)N(C2CCC(=O)NC2=O)C3=O)C(=O)Nc2nc(-c3ccccc3)cs2)c1 (stereo partly drawn) [Compound 275]" reportedendpoint=DC50 result="> 10000 nM"
compound="CS(=O)(=O)n1ccc(C(=O)NCC(=O)Nc2nc(-c3cccc(-c4ccnc(C5(C(=O)N6CCN(CCOc7ccc8c(c7)C(=O)N(C7CCC(=O)NC7=O)C8=O)CC6)CC5)c4)c3)cs2)c1 (stereo not drawn) [Compound 150]" reportedendpoint=DC50 result="100 to 1000 nM"

----------
Biological target: HiBit-BRM fusion protein (Homo sapiens)
Construct: expressed in transfected cells
Test: HiBiT-BRM cell-based degradation assay (Nano-Glo HiBiT Lytic Detection, 24 h)
Conditions: HeLa cells expressing HiBiT-BRM, read-out: BRM HiBit Degradation IC50
Counter-ions that a name gives are not always drawn.
reportedEndpoint: DC50

compound="CS(=O)(=O)n1ccc(C(=O)NCC(=O)Nc2nc(-c3cccc(-c4ccnc(C5(C(=O)NCCCCNc6ccc7c(c6)C(=O)N(C6CCC(=O)NC6=O)C7=O)CC5)c4)c3)cs2)c1 (stereo not drawn)" result="< 0.1 µM"
compound="Cc1ncsc1-c1ccc(CNC(=O)[C@@H]2C[C@@H](O)CN2C(=O)[C@@H](NC(=O)CCN2CC(C(=O)NCc3cccc(-c4cccc(-c5csc(NC(=O)CNC(=O)c6ccn(S(C)(=O)=O)c6)n5)c4)c3)C2)C(C)(C)C)cc1 [Compound 154, formate]" result="> 10 µM"
compound="CS(=O)(=O)n1ccc(C(=O)N[C@@H](CCOCCCC(=O)NCCOc2ccc3c(c2)C(=O)N(C2CCC(=O)NC2=O)C3=O)C(=O)Nc2nc(-c3ccccc3)cs2)c1 (stereo partly drawn)" result="> 10 µM"
compound="CS(=O)(=O)n1ccc(C(=O)N[C@@H](COCc2ccc(CNC(=O)CCCCOc3cccc4c3C(=O)N(C3CCC(=O)NC3=O)C4=O)cc2)C(=O)Nc2nc(-c3ccccc3)cs2)c1 (stereo partly drawn)" result="> 10 µM"
compound="CS(=O)(=O)n1ccc(C(=O)N[C@@H](CCOCCCC(=O)N2CCN(CCCC#Cc3ccc4c(c3)C(=O)N(C3CCC(=O)NC3=O)C4=O)CC2)C(=O)Nc2nc(-c3ccccc3)cs2)c1 (stereo partly drawn)" result="> 10 µM"
compound="CN1C(=O)CCC(N2C(=O)c3cccc(OCC(=O)NCCCCCCCCNC(=O)C4(c5cc(-c6cccc(-c7csc(NC(=O)CNC(=O)c8ccn(S(C)(=O)=O)c8)n7)c6)ccn5)CC4)c3C2=O)C1=O (stereo not drawn)" result="> 10 µM"
compound="CS(=O)(=O)n1ccc(C(=O)NCC(=O)Nc2nc(-c3cccc(-c4ccn(CC(=O)NCCOCCOCCNc5cccc6c5C(=O)N(C5CCC(=O)NC5=O)C6=O)n4)c3)cs2)c1 (stereo not drawn)" result="> 10 µM"
compound="CS(=O)(=O)n1ccc(C(=O)N[C@@H](COCc2ccc(C(=O)N3CC(CN4CCN(c5ccc6c(c5)C(=O)N(C5CCC(=O)NC5=O)C6=O)CC4)C3)cc2)C(=O)Nc2nc(-c3ccccc3)cs2)c1 (stereo partly drawn)" result="0.1 to 1 µM"
compound="CC(C)(C)n1ccc(C(=O)N[C@@H](COCc2ccc(C(=O)NCCOC3CN(c4ccc5c(c4)C(=O)N(C4CCC(=O)NC4=O)C5=O)C3)cc2)C(=O)Nc2nc(-c3ccccc3)cs2)c1 (stereo partly drawn)" result="< 0.1 µM"
